Target: T1, factor VIIIa A1/A3C1C2 dimer, wild type (human, UniProt P00451 20-391; P00451 1709-2351)
T1 sequence 1: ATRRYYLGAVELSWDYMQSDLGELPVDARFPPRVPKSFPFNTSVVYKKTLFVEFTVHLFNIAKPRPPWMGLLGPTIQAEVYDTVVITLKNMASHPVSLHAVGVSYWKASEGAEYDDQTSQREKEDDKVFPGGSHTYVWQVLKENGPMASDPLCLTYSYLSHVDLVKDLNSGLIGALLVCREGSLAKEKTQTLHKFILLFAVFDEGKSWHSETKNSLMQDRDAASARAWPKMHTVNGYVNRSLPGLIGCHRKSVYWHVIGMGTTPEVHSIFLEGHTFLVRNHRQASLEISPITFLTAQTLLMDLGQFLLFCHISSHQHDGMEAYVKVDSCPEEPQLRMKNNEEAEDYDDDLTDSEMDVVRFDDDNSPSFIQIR
T1 sequence 2: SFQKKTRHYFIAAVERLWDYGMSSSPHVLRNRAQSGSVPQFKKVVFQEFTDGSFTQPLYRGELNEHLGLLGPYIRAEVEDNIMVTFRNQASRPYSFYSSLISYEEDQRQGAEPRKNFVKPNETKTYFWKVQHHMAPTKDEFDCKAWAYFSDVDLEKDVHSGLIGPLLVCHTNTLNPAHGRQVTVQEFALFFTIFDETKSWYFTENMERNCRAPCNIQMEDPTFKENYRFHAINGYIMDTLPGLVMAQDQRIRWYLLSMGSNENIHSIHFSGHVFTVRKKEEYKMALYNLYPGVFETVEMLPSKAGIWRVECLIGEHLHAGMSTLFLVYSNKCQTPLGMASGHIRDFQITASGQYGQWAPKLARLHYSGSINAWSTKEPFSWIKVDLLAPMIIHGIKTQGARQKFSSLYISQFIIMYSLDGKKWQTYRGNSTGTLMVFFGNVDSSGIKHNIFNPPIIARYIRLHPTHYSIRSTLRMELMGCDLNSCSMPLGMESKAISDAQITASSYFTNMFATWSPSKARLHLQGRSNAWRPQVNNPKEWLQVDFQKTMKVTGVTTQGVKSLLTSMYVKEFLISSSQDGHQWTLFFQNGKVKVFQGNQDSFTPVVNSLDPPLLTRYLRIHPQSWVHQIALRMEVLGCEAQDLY
Assay: cell-based or functional assay
measurement_type: Decay rate relative to wild type, Factor VIIIa (1.5 nM, factor IXa absent)

factor VIIIa A2 subunit, D519A and E665A (other) SVAKKHPKTWVHYIAAEEEDWDYAPLVLAPDDRSYKSQYLNNGPQRIGRKYKKVRFMAYTDETFKTREAIQHESGILGPLLYGEVGDTLLIIFKNQASRPYNIYPHGITDVRPLYSRRLPKGVKHLKDFPILPGEIFKYKWTVTVEAGPTKSDPRCLTRYYSSFVNMERDLASGLIGPLLICYKESVDQRGNQIMSDKRNVILFSVFDENRSWYLTENIQRFLPNPAGVQLEDPEFQASNIMHSINGYVFDSLQLSVCLHEVAYWYILSIGAQTDFLSVFFSGYTFKHKMVYADTLTLFPFSGETVFMSMENPGLWILGCHNSDFRNRGMTALLKVSSCDKNTGDYYEDSYEDISAYLLSKNNAIEPR ... 0.25 relative to wild type
